Biological target: PAX3::FOXO1 fusion protein (UniProt P23760 1-391+Q12778:211-655, internal_change)
Sequence (P23760 other isoform, or with tags, fused parts or gaps): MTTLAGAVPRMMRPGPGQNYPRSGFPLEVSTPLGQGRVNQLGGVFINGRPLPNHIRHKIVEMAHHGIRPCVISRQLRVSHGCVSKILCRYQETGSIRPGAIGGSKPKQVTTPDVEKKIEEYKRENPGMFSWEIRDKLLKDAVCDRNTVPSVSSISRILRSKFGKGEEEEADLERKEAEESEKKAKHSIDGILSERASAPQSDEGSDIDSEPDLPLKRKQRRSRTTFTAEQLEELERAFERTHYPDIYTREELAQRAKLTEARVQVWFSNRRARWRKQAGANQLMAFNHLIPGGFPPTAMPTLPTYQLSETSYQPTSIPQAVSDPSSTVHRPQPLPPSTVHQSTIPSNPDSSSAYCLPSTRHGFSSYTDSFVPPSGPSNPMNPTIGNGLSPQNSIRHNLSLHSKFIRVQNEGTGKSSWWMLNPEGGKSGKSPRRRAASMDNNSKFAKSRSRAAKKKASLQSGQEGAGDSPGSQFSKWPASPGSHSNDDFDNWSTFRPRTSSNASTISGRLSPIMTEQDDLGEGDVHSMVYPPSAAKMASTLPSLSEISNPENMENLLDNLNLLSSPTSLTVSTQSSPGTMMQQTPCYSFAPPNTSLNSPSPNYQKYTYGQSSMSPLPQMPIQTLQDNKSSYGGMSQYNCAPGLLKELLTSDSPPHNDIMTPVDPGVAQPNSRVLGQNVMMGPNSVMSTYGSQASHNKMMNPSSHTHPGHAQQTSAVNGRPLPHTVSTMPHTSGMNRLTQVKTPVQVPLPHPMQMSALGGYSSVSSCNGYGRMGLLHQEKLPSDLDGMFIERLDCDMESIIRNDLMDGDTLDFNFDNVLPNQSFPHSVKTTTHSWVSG
Experiment: SPR; SPR, Biacore T-200, CM5 chip; PBS-P (20 mM phosphate pH 7.4, 137 mM NaCl, 2.7 mM KCl, 0.05% P20) stated as immobilization running buffer, with 5% DMSO for small molecules; temperature not stated
Details: protein: recombinant; tags: C-terminal 12xHis; N-terminal internal HA tag; blunt
METRIC NAME: Kd (nM)

BINDER: PAX3::FOXO1-specific oligonucleotide (dsDNA) DNA 1: ACCGTGACTAATTTAATTAGTCACG DNA 2: CGTGACTAATTAAATTAGTCACGGT
UNIT LABEL: nM
RESULT NUMBER: 6.3
